assayProcedure: Radical scavenging activity against DPPH
metric: IC50 (µM)

[P] Cc1c(O)cc2c(c1O)CO[C@@]1(O[C@@H](C)CC[C@@H]1O)[C@@H]2O
[Q] O=C1O[C@H]([C@@H](O)CO)C(O)=C1O [Ascorbic acid, reference compound]
[R] C[C@H]1C[C@H](O)C[C@@]2(CC3=C(CO2)C(=O)[C@](C)(O)[C@H](O)C3)O1
Sort by IC50 with smallest numbers at the start of the list. Output spec: labels arranged per the requested ranking.
Q, R, P

* * *

assayProcedure: Cytotoxicity towards CD-1 mouse splenocytes
Format: cell-based
statedConditions: assayed up to 100 µM, read-out: cytotoxicity against splenocytes IC50
metric: IC50 (µM)
Quick reminder: number only, in µM, skip the unit.

Reported IC50 of C[C@H]1C[C@H](O)C[C@@]2(CC3=C(CO2)C(=O)[C@](C)(O)[C@H](O)C3)O1 [compound 5, sargassopenilline E] : 38
